Assay: Metabolic stability […] assessed as alpha-chymotrypsin-mediated compound degradation after 8 hrs by LC-MS analysis
Format: ADME, cell-free
Settings: read-out: Drug degradation
measure.name: metabolised at 8 h (%)
Number only, in %; omit the unit.

Query: Sample "COc1cccc2c1C(=O)c1c(O)c3c(c(O)c1C2=O)C[C@@](O)(/C(C)=N/OCC(=O)NCCCC[C@H](NC(=O)[C@H](Cc1c[nH]c2ccccc12)NC(=O)[C@H](CC(=O)O)NC(=O)[C@H](Cc1cnc[nH]1)NC(=O)[C@H](CCCCNC(=O)CC(C)C)NC(=O)[C@H](Cc1c[nH]c2ccccc12)NC(=O)[C@H](Cc1cnc[nH]1)NC(=O)[C@@H]1CCC(=O)N1)C(=O)N1CCC[C@H]1C(=O)NCC(N)=O)C[C@@H]3O[C@H]1C[C@H](N)[C@H](O)[C@H](C)O1" — what was its metabolised at 8 h?
Result: 50

// data source = ChEMBL document CHEMBL2086240
